- TEST DETAILS: Liver microsomal stability test, mouse
- Assay type: in vitro ADME
- ASSAY SETUP: Mouse liver microsomes, 60 min
Listing of entries alongside the reported Remaining, (T = 60 min).
Be sure to follow the number with its unit.

Here is how some compounds turned out for Remaining, (T = 60 min).
[[record]]
compound = "Cc1cc(-c2ccccc2)c(C(=O)C(=O)Nc2ccc3c(c2)CCC2CN(c4ncc(F)cn4)CCN32)n1C (stereo not drawn)"
result_type = "Remaining, (T = 60 min)"
result = "26.2%"

[[record]]
compound = "Cc1cc(-c2ccccc2)c(C(=O)C(=O)Nc2cc(F)c3c(c2)OC[C@H]2CN(c4ncc(F)cn4)CCN32)n1C"
result_type = "Remaining, (T = 60 min)"
result = "15.7%"


Consider the additional compound presented here.
*Q* Recorded Remaining, (T = 60 min) of Cc1cc(-c2ccccc2F)c(C(=O)C(=O)Nc2ccc3c(c2)C[C@H]2CN(c4ncc(F)cn4)CCN32)n1C , please.
*A* 24.5%

----------
The following molecules are shown together with reported CLint scaled values.
- TEST DETAILS: Liver microsomal stability test, human
- Assay type: in vitro ADME
- ASSAY SETUP: Human liver microsomes, 0.5 mg/mL protein, 37° C., NADPH
Number only, in mL/min/kg; omit the unit.

[[record]]
molecule = "Cc1cc(-c2ccccc2)c(C(=O)C(=O)Nc2ccc(N3CCN(c4ncc(F)cn4)CC3)cc2)n1C [Example F901318, reference compound]"
result_number = 37.8


*Q* Suppose we examine the molecule Cc1cc(-c2ccccc2)c(C(=O)C(=O)Nc2ccc3c(c2)CCC2CN(c4ncc(F)cn4)CCN32)n1C (stereo not shown) ; what CLint scaled value has been reported?
*A* 56.4

*Q* Also Cc1cc(-c2ccccc2)c(C(=O)C(=O)Nc2cc(F)c3c(c2)OC[C@H]2CN(c4ncc(F)cn4)CCN32)n1C ?
*A* 48.8

*Q* Please do the same for Cc1cc(-c2ccccc2)c(C(=O)C(=O)Nc2ccc3c(c2)C[C@H]2CN(c4ncc(F)cn4)CCN32)n1C as well.
*A* 25.9

From: patent US20240327423A1
